Provenance of the data: patent US7179819B2

- Experimental protocol: Pharmacokinetic evaluation in rat
- Type: in vivo
- Experimental setup: plasma, po, 10 mg/kg, 10 mg/kg (p.o.), line of AUC 0–6 hr, read-out: MRT (mean residence time)
Each entry below carries its reported MRT.
// return numeric value only (unit: h, not printed)

[[record]]
molecule = "Cc1cc(CC(=O)N2C[C@@H](F)C[C@H]2COc2ccc(C(=O)O)cc2)ccc1NC(=O)Nc1ccccc1Cl [Compound 79]"
assay_result = 0.5


// query Fill blank: measured MRT of the molecule Cc1ccccc1NC(=O)Nc1ccc(CC(=O)N2C[C@@H](F)C[C@H]2COc2ccc(C(=O)O)cc2)cc1Cl [Compound 90] is ____.
// result 1.7
